// values below are reported TGI
# Tested on: MDA-MB-231 breast
# testMethodNotes: NCI tumour cell line growth inhibition, 48 h
The figure you give is taken to be in µM; do not add the unit.

CC1=CCC(OC(=O)C(C)(C)CCC(O)(C(=O)OC2(C(C)C)CCC3(C)OC3C2)C(C)C)(C(C)C)CC1 (stereo unspecified) ... 1.39

Input line: I'm curious: which TGI was measured for O=C(CCCCCCSc1nc(-c2ccccc2)cc(-c2ccccc2)n1)NO tested on MDA-MB-231 breast?
Output line: 7.62

Input line: I'm curious: which TGI was measured for FC(F)(F)C(C1=NC(C(F)(F)F)(C(F)(F)F)N=C(N2CCOCC2)O1)C(F)(F)F tested on MDA-MB-231 breast?
Output line: 36.1

Input line: I'm curious: which TGI was measured for COC(C(=O)C(O)C(C)O)C1Cc2cc3cc(OC4CC(OC(C)=O)C(OC5CC(O)C(OC)C(C)O5)C(C)O4)cc(O)c3c(O)c2C(=O)C1OC1CC(OC2CC(OC3CC(C)(O)C(OC(=O)C(C)C)C(C)O3)C(O)C(C)O2)C(O)C(C)O1 (stereo unspecified) tested on MDA-MB-231 breast?
Output line: 0.551

Input line: I'm curious: which TGI was measured for C=C(C)C(=O)OC1CC2=CC(CC3(C)OC3C3OC(=O)C(=C)C13)OC2=O (stereo unspecified) tested on MDA-MB-231 breast?
Output line: 37.1

Input line: I'm curious: which TGI was measured for Cc1nc(Nc2ccc(F)cc2)c2sc(=S)n(-c3ccc(F)cc3)c2n1 tested on MDA-MB-231 breast?
Output line: 26.9

Input line: I'm curious: which TGI was measured for Cc1ccccc1NC(=O)C(=O)CC(=O)c1sc(Nc2ccccc2[N+](=O)[O-])nc1C tested on MDA-MB-231 breast?
Output line: 40.2

Input line: I'm curious: which TGI was measured for O=C1/C(=C/c2ccc([N+](=O)[O-])o2)Oc2ccc(Br)cc21 tested on MDA-MB-231 breast?
Output line: 3.84

====

# Test system: HT29 colon
# testMethodNotes: NCI tumour cell line growth inhibition, 48 h
// values below are reported TGI

O=C1C=CC(=O)c2c(NCC3CC3)ccc(NCC3CC3)c21 ... 88.4 µM
COc1cc(Cn2c(=S)ss/c2=N\C(=S)N(C)C)cc(OC)c1OC ... > 100 µM
COC1(O)C(=O)c2ccccc2OC1(OC)c1ccccc1 (centres undefined) ... > 100 µM
Cc1cccc(NC(=O)c2cc3cc(N=Nc4ccccc4Cl)ccc3oc2=O)c1 ... > 100 µM
Cc1ccc2c(c1C)-c1c(ccc(C)c1C)C(=O)C2=O ... 7.43 µM

Input line: I'd like to know its TGI. The compound in question is CC1=C(O)C(=O)C[C@]2(C)[C@H]3CC=C4[C@@H]5CC(C)(C)CC[C@@H]5C(=O)[C@H](O)[C@@]4(C)[C@]3(C)CC[C@@H]12
Output line: > 50 µM

Input line: I'd like to know its TGI. The compound in question is Nc1ccc(C(=O)NN2C(=O)C(Cl)C2c2cc(Br)ccc2O)cc1 (centres undefined)
Output line: > 100 µM

Input line: I'd like to know its TGI. The compound in question is CN1CCN(c2nc(NCCCCNc3ccnc4cc(Cl)ccc34)c3ccccc3n2)CC1
Output line: 5.49 µM

Input line: I'd like to know its TGI. The compound in question is CC(C)C1OC2(C)OC(=N)C1(C#N)C(C#N)(C#N)C2C (centres undefined)
Output line: 41 µM

====

// values below are reported TGI
# Test system: SK-OV-3 ovarian
# testMethodNotes: NCI tumour cell line growth inhibition, 48 h

O=c1c2cc(Br)ccc2nc(-c2ccccc2Cl)n1NCC1(O)OCC(O)C(O)C1O (centres undefined) ... > 100 µM
Nc1ccc(C(=O)NN2C(=O)C(Cl)C2c2cc(Br)ccc2O)cc1 (centres undefined) ... > 100 µM
CC1=C(C(=O)Nc2cccc(Cl)c2)C(c2ccc([N+](=O)[O-])cc2)C(C(=O)Nc2cccc(Cl)c2)=C(C)N1 ... 48.9 µM
CS(=O)(=O)OCCn1cnc2nc(NC(=O)c3ccccc3)[nH]c(=O)c21 ... > 100 µM
COC(=O)C1=C(C(=O)OC)C2C(C)=CC(C)=CN2C(C#N)=C(SC)S1 (centres undefined) ... > 100 µM
CCCCCCCCCCC(O)[C@H]1CCC(C2CC[C@H]([C@H](O)CCCCCCCCCCC(O)CC3=CC(C)OC3=O)O2)O1 (some centres undefined) ... 15.7 µM
CC1(C)C2CCC(N)(C2)C1N (centres undefined) ... > 100 µM
CCN1CCN(CC(=O)Nc2nc3ccc(NCc4ccc(Cl)cc4)cc3s2)CC1 ... 7.98 µM
c1ccc(-c2ccc(-c3cc4ccccc4[nH]3)cc2)cc1 ... > 100 µM
COC(=O)c1cc(-c2cc(OC)c(OC)c(OC)c2)[nH]c1N/N=C/c1c(Cl)cccc1Cl ... 13.3 µM

Input line: I'd like to know its TGI. The compound in question is O=C1/C(=C/c2ccc([N+](=O)[O-])o2)Oc2ccc(Br)cc21
Output line: 32.2 µM

Input line: I'd like to know its TGI. The compound in question is Nc1ccc2nc3ccc(N)cc3[n+](-c3ccccc3)c2c1
Output line: > 100 µM

Input line: I'd like to know its TGI. The compound in question is O=C(N/N=C/c1ccc([N+](=O)[O-])cc1)c1cccc2nc3ccccc3nc12
Output line: > 100 µM

====

// values below are reported TGI
# Tested on: OVCAR-8 ovarian
# testMethodNotes: NCI tumour cell line growth inhibition, 48 h

Input line: I'd like to know its TGI. The compound in question is N=C(N)C(N=Nc1ccccc1)C(N)=O (stereo not given)
Output line: > 100 µM

====

// values below are reported TGI
# System: COLO 205 colon
# testMethodNotes: NCI tumour cell line growth inhibition, 48 h
Where a SMILES comes first, the peptide text is derived from it. The star is where a group is joined. Cbz = O=C(OCc1ccccc1)*; Boc = CC(C)(C)OC(=O)*; Bn = c1ccc(C*)cc1

CC(O)(/C=C/c1ccccc1)P(=O)(O)c1ccccc1 (stereo not given) ... > 100 µM
COC(=O)[C@@H](O)[C@]1(C(=O)OC)C2O[C@@H](OC)[C@@H]1CCCCCC[C@H]2O ... > 100 µM
CN1CCN(c2cc3c(cc2F)c(=O)c(C(=O)O)cn3C2CC2)CC1CC#N (stereo not given) ... > 100 µM
CCCCCCCCC(=O)N(C)C1C2CN3CCC(O2)C13 (stereo not given) ... > 100 µM
CC(=O)CCC(=O)C(=[N+]=[N-])S(=O)(=O)c1ccccc1 ... > 100 µM

Input line: I'm curious: which TGI was measured for CC(C)(C)OC(=O)NC(Cc1ccc(OCc2ccccc2)cc1)C(=O)NC(CCCCNC(=O)OCc1ccccc1)C(=O)O (stereo not given) (Boc-Tyr(Bn)-Lys(Cbz)-OH; configuration not given here) tested on COLO 205 colon?
Output line: > 100 µM

Input line: I'm curious: which TGI was measured for O=C(O)CCC(NC(=O)c1ccc(Nc2cnc3ccc(C(F)(F)F)cc3n2)cc1)C(=O)O (stereo not given) tested on COLO 205 colon?
Output line: > 100 µM

Input line: I'm curious: which TGI was measured for COc1cc(/C=C/C(=O)OC2C(O)C3CC(OC(=O)c4cc(OC)c(OC)c(OC)c4)CC2N3C)cc(OC)c1OC (stereo not given) tested on COLO 205 colon?
Output line: 42.5 µM

====

# System: MALME-3M melanoma
# testMethodNotes: NCI tumour cell line growth inhibition, 48 h; in the data active = GI50 below about 0.43 µM; inactive = the rest
Your response should consist of one outcome taken from active, inactive

Take a look at these entries with their results.
C=CC1=C[C@@H]2[C@@H]3O[C@]4(CC[C@H](O4)[C@@H](C)C[C@@H](O)C3=O)C[C@H](O)C3=NCC[C@@]32CC1 ... active
C=C(C)[C@@H]1CC[C@]2(C(=O)NCCNCCNCCN)CC[C@]3(C)[C@H](CC[C@@H]4[C@@]5(C)CC[C@H](O)C(C)(C)[C@@H]5CC[C@]43C)[C@@H]12 ... inactive
CC(C)[C@@]12C[C@@H](OC(=O)COC(=O)/C=C/c3ccccc3)[C@@](C)(O1)[C@@H]1CC[C@@H](C)[C@H]1[C@@H]2OC(=O)/C=C/c1ccccc1 ... inactive
O=Cc1cn(Cc2cccc(Cl)c2)c2ccccc12 ... inactive
[C-]#[O+].[C-]#[O+].[C-]#[O+].[C-]#[O+].[Ir].[Ir].[O-]c1ccc2ccccc2c1C=Nc1ccc(N=Cc2c([O-])ccc3ccccc23)cc1 ... inactive

Input line: Assay outcome for CN(C)c1ccc(-c2cc(-c3ccc(Nc4nc(Nc5ccccc5)nc(Nc5ccc(Cl)cc5)n4)cc3)nc(N)n2)cc1 : what was it?
Output line: inactive

Input line: Assay outcome for C[C@H]1[C@H](C)CC[C@]2(C(=O)N3CCN(C)CC3)CC[C@]3(C)C(=CC[C@@H]4[C@@]5(C)C/C(=C/c6cccnc6)C(=O)C(C)(C)[C@@H]5CC[C@]43C)[C@H]12 : what was it?
Output line: inactive

Input line: Assay outcome for CCc1cccc2c3c(sc12)C(c1ccc(Cl)cc1)C(C#N)=C(N)O3 (stereo not given) : what was it?
Output line: inactive

Input line: Assay outcome for CS(=O)(=O)c1ccc(-c2cnc(N)c(C(=O)Nc3ccccc3)n2)cc1 : what was it?
Output line: inactive

Input line: Assay outcome for C/C(=C\c1ccn(-c2ccc(N)c(F)c2)n1)[C@@H]1C[C@@H]2O[C@]2(C)CCC[C@H](C)[C@H](O)[C@@H](C)C(=O)C(C)(C)[C@@H](O)CC(=O)O1 : what was it?
Output line: active

The reported measurements were obtained from PubChem BioAssay (NCI).
